TESTED ON: system Xc^− (Homo sapiens, UniProt Q9UPY5)
Sequence (Q9UPY5 whole entry): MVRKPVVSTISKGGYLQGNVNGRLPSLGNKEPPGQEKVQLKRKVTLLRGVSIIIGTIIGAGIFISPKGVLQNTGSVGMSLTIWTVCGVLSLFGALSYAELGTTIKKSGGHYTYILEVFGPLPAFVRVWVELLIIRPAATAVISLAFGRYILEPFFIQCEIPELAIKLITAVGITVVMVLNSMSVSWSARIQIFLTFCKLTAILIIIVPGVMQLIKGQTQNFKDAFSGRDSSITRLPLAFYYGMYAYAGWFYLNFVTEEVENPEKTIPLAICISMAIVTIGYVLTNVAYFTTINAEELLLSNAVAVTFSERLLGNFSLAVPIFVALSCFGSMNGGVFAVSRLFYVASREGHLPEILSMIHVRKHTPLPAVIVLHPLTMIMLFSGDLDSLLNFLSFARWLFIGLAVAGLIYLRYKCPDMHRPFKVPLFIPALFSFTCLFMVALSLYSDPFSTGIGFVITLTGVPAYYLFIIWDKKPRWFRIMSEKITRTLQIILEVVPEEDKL
Sequence (P08195 102-630 partner): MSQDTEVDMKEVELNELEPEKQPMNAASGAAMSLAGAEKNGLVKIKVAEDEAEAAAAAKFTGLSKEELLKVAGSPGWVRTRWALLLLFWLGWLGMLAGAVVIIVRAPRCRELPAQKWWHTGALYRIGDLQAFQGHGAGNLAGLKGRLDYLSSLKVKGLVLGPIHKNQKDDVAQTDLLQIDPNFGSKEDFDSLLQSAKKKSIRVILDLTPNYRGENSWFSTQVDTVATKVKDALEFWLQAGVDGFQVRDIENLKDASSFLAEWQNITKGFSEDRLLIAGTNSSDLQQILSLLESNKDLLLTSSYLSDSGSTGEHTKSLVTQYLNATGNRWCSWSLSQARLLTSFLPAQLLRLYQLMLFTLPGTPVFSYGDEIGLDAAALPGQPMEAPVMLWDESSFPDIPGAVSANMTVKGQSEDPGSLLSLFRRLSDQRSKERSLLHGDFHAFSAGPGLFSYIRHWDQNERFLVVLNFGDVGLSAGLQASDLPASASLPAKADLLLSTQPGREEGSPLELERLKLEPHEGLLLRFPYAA
TEST DESCRIPTION: Cystine-induced glutamate release assay
Assay type: cell-based
Design: endogenous in cells; host or cells: H4 cells
EXPERIMENTAL CONTEXT: H4 cells, sodium-free HEPES buffer, 50 μM L-Cystine, 2 hours, Amplex Red glutamate readout; read-out: pIC50 Cystine-induced glutamate release assay (converted)
IC50 by entry:
PROPERTY MEASURED: IC50

>>> result("Cc1cc2c(cn1)-c1ccc(F)cc1CC(=O)N2CC(=O)Nc1ccc(C(F)(F)F)cc1")
"100 to 501 nM"
>>> result("CC1C(=O)N(CC(=O)Nc2ccc(C(F)(F)F)cc2)c2cc(F)c(=O)n(C)c2-c2cccnc21 (stereo not drawn)")
"39.8 to 100 nM"
>>> result("O=C(CN1C(=O)Cc2ccccc2-c2cnc(Cl)cc21)Nc1ccc(C(F)(F)F)cc1")
"100 to 501 nM"

###

TESTED ON: system Xc^− (Homo sapiens, UniProt Q9UPY5)
TEST DESCRIPTION: Cystine-induced glutamate release assay
Format: cell-based
Set-up: endogenous in cells; host or cells: H4 cells
EXPERIMENTAL CONTEXT: H4 cells, sodium-free HEPES buffer, 50 μM L-Cystine, 2 hours, Amplex Red glutamate readout; read-out: pIC50 Cystine-induced glutamate release assay (converted)
PROPERTY MEASURED: IC50

>>> result("CC1C(=O)N(CC(=O)Nc2ccc(Cl)c(F)c2)c2cc(C#N)cc(F)c2-c2cccnc21 (single isomer, unassigned)")
"< 0.0158 µM"
>>> result("CC1C(=O)N(CC(=O)Nc2ccc(Cl)c(F)c2)c2cc(Cl)cc(F)c2-c2ccnnc21 (single isomer, unassigned)")
"< 0.0158 µM"
>>> result("Cc1cc2c(c(=O)n1C)-c1cncnc1C(C)C(=O)N2CC(=O)Nc1ccc(C(F)F)cc1 (single isomer, unassigned)")
"0.0158 to 0.0398 µM"
>>> result("Cc1cc2c(cn1)-c1ccnn1CC(=O)N2CC(=O)Nc1ccc(C(F)(F)F)cc1")
"0.1 to 0.501 µM"
>>> result("CC1C(=O)N(CC(=O)Nc2ccc(Cl)c(F)c2)c2cc(N(C)CCN(C)C)nc(F)c2-c2cccnc21 (single isomer, unassigned)")
"0.0158 to 0.0398 µM"
>>> result("Cc1cc2c(c(Cl)n1)-c1cccnc1C(C)C(=O)N2CC(=O)Nc1ccc(C#N)cc1 (stereo not drawn)")
"0.1 to 0.501 µM"
>>> result("N#Cc1c(F)ccc2c1-c1cccnc1CC(=O)N2CC(=O)Nc1ccc(C(F)(F)F)cc1")
"0.0398 to 0.1 µM"
>>> result("COc1ccc(NC(=O)CN2C(=O)C(C)c3ncccc3-c3c2cc(C)nc3F)cc1F (stereo not drawn)")
"0.0398 to 0.1 µM"
>>> result("Cc1cc2c(cc1C)N(CC(=O)Nc1ccc(C(F)(F)F)cc1)C(=O)Cc1cncnc1-2")
"0.1 to 0.501 µM"
>>> result("Cc1cc2c(c(=O)[nH]1)-c1ccccc1C(C)C(=O)N2CC(=O)Nc1ccc(C(F)(F)F)cc1 (stereo not drawn)")
"0.0158 to 0.0398 µM"
>>> result("O=C(CN1C(=O)C(O)c2ncc(F)cc2-c2c(F)cc(F)cc21)Nc1ccc(Cl)c(F)c1 (single isomer, unassigned)")
"< 0.0158 µM"
>>> result("CC1C(=O)N(CC(=O)Nc2ccc(Cl)c(F)c2)c2cc(C3(F)CN(C)C3)nc(Cl)c2-c2cccnc21 (stereo not drawn)")
"0.0158 to 0.0398 µM"
>>> result("Cc1cc2c(c(F)n1)-c1cc(F)cnc1C(C)C(=O)N2CC(=O)Nc1ccc(C(F)F)cc1 (single isomer, unassigned)")
"< 0.0158 µM"
>>> result("O=C(CN1C(=O)Cc2cc(F)ccc2-c2c1ccnc2Cl)Nc1ccc(C(F)(F)F)cc1")
"0.0398 to 0.1 µM"
>>> result("Cc1cc2c(cn1)-c1cc(C)c(C)cc1N(CC(=O)Nc1ccc(C(F)(F)F)cc1)C(=O)C2")
"0.1 to 0.501 µM"
>>> result("CC1C(=O)N(CC(=O)Nc2ccc(Cl)c(F)c2)c2cc(N3CC(F)(F)C3)nc(F)c2-c2cccnc21 (single isomer, unassigned)")
"< 0.0158 µM"
>>> result("Cc1cc2c(c(Cl)n1)-c1cccnc1C(C)C(=O)N2CC(=O)Nc1ccc(C(F)(F)F)cc1F (single isomer, unassigned)")
"< 0.0158 µM"
>>> result("CC1C(=O)N(CC(=O)Nc2ccc(C(F)F)cc2)c2cc(N3CC4(C3)CC4(F)F)nc(F)c2-c2cccnc21 (single isomer, unassigned)")
"< 0.0158 µM"
>>> result("Cc1cc2c(c(C#N)n1)-c1cccnc1C(C)C(=O)N2CC(=O)Nc1ccc(C(F)(F)F)cc1 (stereo not drawn)")
"0.0158 to 0.0398 µM"
>>> result("Cc1cc2c(c(Cl)n1)-c1cccnc1C(C)C(=O)N2CC(=O)Nc1ccc(C(F)F)nc1 (single isomer, unassigned)")
"0.0158 to 0.0398 µM"
>>> result("CC1C(=O)N(CC(=O)Nc2ccc(C(F)F)cc2)c2cc(N3CC[C@H]3CO)nc(F)c2-c2cccnc21 (stereo partly drawn)")
"0.0158 to 0.0398 µM"
>>> result("Cc1cc2c(c(Cl)n1)-c1cc(F)cnc1C(C)C(=O)N2CC(=O)Nc1ccc(C(C)(F)F)cc1 (single isomer, unassigned)")
"< 0.0158 µM"
>>> result("Cc1cc2c(cn1)-c1cccnc1C(C)C(=O)N2CC(=O)Nc1ccc(C(F)(F)F)cc1 (stereo not drawn)")
"0.0398 to 0.1 µM"
>>> result("CCn1c(C)cc2c(c1=O)-c1cccnc1CC(=O)N2CC(=O)Nc1ccc(C(F)(F)F)cc1")
"0.0398 to 0.1 µM"
>>> result("CC1C(=O)N(CC(=O)Nc2ccc(Cl)c(F)c2)c2cc(CN3CC(C)(O)C3)ccc2-c2cccnc21 (stereo not drawn)")
"0.0398 to 0.1 µM"
>>> result("Cc1cc2c(c(F)n1)-c1cc(F)cnc1C(C)C(=O)N2CC(=O)Nc1ccc(C(F)(F)F)nc1 (single isomer, unassigned)")
"0.0158 to 0.0398 µM"
>>> result("Cc1cc2c(cn1)-c1cc(F)cnc1C(C)C(=O)N2CC(=O)Nc1ccc(C(F)F)cc1 (single isomer, unassigned)")
"< 0.0158 µM"
